# MEASURED TARGET: recombinant human PDE5A/PDE5 protein (Homo sapiens, UniProt O76074)
# Construct: purchased Abcam
# EXPERIMENTAL PROTOCOL: colorimetric PDE Activity Assay Kit (Abcam), PDE5 inhibition
# Format: biochemical
# MEASUREMENT CONDITIONS: 200 μM cGMP, 40 ng enzyme, 20 min at 37 °C, 4% DMSO; read-out: IC50 against human PDE5
MEASURED METRIC: IC50 (µM)
Use µM as the unit, but write only the number.

>  <SMILES STRUCTURE>
CN1CC(=O)N(Cc2cc3c(cc2Br)OCO3)[C@@H](Cc2c[nH]c3ccccc23)C1=O

>  <UNITS SYMBOL>
µM

>  <IC50>
39

$$$$

Read off the recorded IC50 for CN1CC(=O)N(Cc2cc3c(cc2Br)OCO3)[C@H](Cc2c[nH]c3ccccc23)C1=O
22

Supply reported IC50 belonging to this molecule: CN1CC(=O)N(Cc2ccc3c(c2)OCO3)[C@@H](Cc2c[nH]c3ccccc23)C1=O
260

Identify the reported IC50 for the following entry. CN1CC(=O)N(Cc2ccc3c(c2)OCO3)[C@H](Cc2c[nH]c3ccccc23)C1=O
137

* * *

# Test system: colorectal carcinoma HCT116p53^−/−
# EXPERIMENTAL PROTOCOL: MTT cell viability assay, HCT116p53−/−
# Assay type: cell-based, human
# MEASUREMENT CONDITIONS: 72 h, median (95% Confidence Intervals)
MEASURED METRIC: IC50
Give the figure together with its unit, number first.

Find the measured IC50 of N.N.[Cl][Pt][Cl] [Cisplatin, cisplatin, reference compound] and report it.
14.1 µM

* * *

# System: colorectal carcinoma HCT116
# EXPERIMENTAL PROTOCOL: MTT cell viability assay, HCT116
# Type: cell-based, human
# MEASUREMENT CONDITIONS: 72 h, median (95% Confidence Intervals)
MEASURED METRIC: IC50 (µM)
Report as a plain number; the unit µM is understood.

Report value only: IC50, colorectal carcinoma HCT116, N.N.[Cl][Pt][Cl] [Cisplatin, cisplatin, reference compound]
7.44

* * *

# System: epidermoid carcinoma A-431
# EXPERIMENTAL PROTOCOL: MTT cell viability assay, A-431
# Assay type: cell-based, human
# MEASUREMENT CONDITIONS: Homo sapiens; A-431, MTT, 72 h; median (95% Confidence Intervals)
MEASURED METRIC: IC50
Report field: quantity (unit follows the number).

>  <COMPOUND>
CN1CC(=O)N(Cc2ccc3c(c2)OCO3)[C@H](Cc2c[nH]c3ccccc23)C1=O

>  <IC50>
104 µM

$$$$
>  <COMPOUND>
CN1CC(=O)N(Cc2cc3c(cc2Br)OCO3)[C@@H](Cc2c[nH]c3ccccc23)C1=O

>  <IC50>
46.6 µM

$$$$
>  <COMPOUND>
CN1CC(=O)N(Cc2ccc3c(c2)OCO3)[C@@H](Cc2c[nH]c3ccccc23)C1=O

>  <IC50>
112 µM

$$$$

// Input: CN1CC(=O)N2[C@H](c3ccc4c(c3)OCO4)c3[nH]c4ccccc4c3C[C@@H]2C1=O [Tadalafil, reference compound] . Output its IC50 only.
20.4 µM

Find the measured IC50 of CN1CC(=O)N(Cc2cc3c(cc2Br)OCO3)[C@H](Cc2c[nH]c3ccccc23)C1=O and report it.
63.6 µM
